melting point: recorded values
Hi! Could you send only the number? It should be in °C, unit omitted.

Record excerpt, results attached:
{"columns": ["compound", "unit.name", "melting point"],
 "data": [
  ["CN(C(=O)CN1CCCCC1)c1ccc(N/C(=C2\\C(=O)Nc3ccc(N(C)S(=O)(=O)c4ccccc4)cc32)c2ccccc2)cc1 [Example 209]", "°C", 160],
  ["CS(=O)(=O)Nc1ccc2c(c1)/C(=C(/Nc1ccc(CN3CCCCC3)cc1)c1ccccc1)C(=O)N2 [Example 98]", "°C", 266],
  ["CN(C)Cc1cccc(N/C(=C2\\C(=O)Nc3ccc(N(C)S(=O)(=O)c4ccccc4)cc32)c2ccccc2)c1 [Example 210]", "°C", 226]
]}

Lookup: // melting point lookup, key: CC(=O)N(CCN)c1ccc(N/C(=C2\C(=O)Nc3ccc(NS(=O)(=O)c4ccccc4)cc32)c2ccccc2)cc1 [Example 1]
Found: 216

Lookup: Item under review: CC(=O)N(CCN(C)C)c1ccc(N/C(=C2\C(=O)Nc3ccc(N(C)S(=O)(=O)c4ccccc4)cc32)c2ccccc2)cc1 [Example 208] . Reported melting point?
Found: 217

###

Each entry below carries its reported melting point.

Record excerpt, results attached:
{"columns": ["smiles.notation", "value.kind", "val"],
 "data": [
  ["O=C(Cc1ccc(N/C(=C2\\C(=O)Nc3ccc(NS(=O)(=O)c4ccccc4)cc32)c2ccccc2)cc1)NCc1ccccc1", "melting point", "219 to 220 °C"],
  ["CCOC(=O)Cc1ccc(N/C(=C2\\C(=O)Nc3ccc(NS(=O)(=O)c4ccccc4)cc32)c2ccccc2)cc1", "melting point", "248 to 249 °C"],
  ["CS(=O)(=O)N(CC(N)=O)c1ccc(N/C(=C2\\C(=O)Nc3ccc(NS(=O)(=O)c4ccccc4)cc32)c2ccccc2)cc1", "melting point", "216 to 217 °C"]
]}

Lookup: Quick one: melting point for O=C(O)Cc1ccc(N/C(=C2\C(=O)Nc3ccc(NS(=O)(=O)c4ccccc4)cc32)c2ccccc2)cc1 ?
Found: 305 to 306 °C
